Reference source for all entries: paper PMC9352680

# study-system: T1, PUF4 RNA-binding domain (Saccharomyces cerevisiae, UniProt P25339 537-888)
# T1 sequence: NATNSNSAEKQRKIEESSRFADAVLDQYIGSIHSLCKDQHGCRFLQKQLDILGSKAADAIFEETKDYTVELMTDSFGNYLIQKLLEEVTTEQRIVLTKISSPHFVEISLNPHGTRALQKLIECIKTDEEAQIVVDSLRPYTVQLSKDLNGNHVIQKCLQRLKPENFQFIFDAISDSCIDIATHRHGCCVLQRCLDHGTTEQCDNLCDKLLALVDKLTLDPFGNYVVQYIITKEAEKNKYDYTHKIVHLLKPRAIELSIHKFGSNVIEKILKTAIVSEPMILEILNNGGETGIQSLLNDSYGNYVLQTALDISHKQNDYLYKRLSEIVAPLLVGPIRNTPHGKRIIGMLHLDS
# measurement-description: Mg; RNA-MaP; 20 mM Na-HEPES pH 7.4, 30 mM KOAc, 0.75 mM MgCl2, 0.1% Tween-20, 5% glycerol, 0.1 mg/mL BSA, 2 mM DTT; 25 C; 0.0125-409.6 nM protein
# test-conditions: tags: N-His6-TEV cleaved; C-SNAP kept, Cy3B-labelled; label: tethered on chip by stalled RNA polymerase
pKd: −log10 of the molar value.
observation-type: pKd

{"binder": "Id_ii_S2_P4E.4_K4.3_C4.2_[C-2T]_[T-1C]_H4.3_A4.1_F4.1_T4.2_[G10A]_[T11A] (ssRNA) RNA: UUUGAUUAAUAUGAUAUCGUUCUUUCUUCACACUAUUAAAUUCUUUCUCGAUAUCAUAUUAAUCUUU", "operator-symbol": "<", "observed-result": 5.64}
{"binder": "Ie_S4_P5E.1_K5.1_C5.1_H5.1_A5.1_[+5TCTC]_F5.1_T5.1 (ssRNA) RNA: UUUGACAACUGAUCGUUCUUUCUUGUAUUCUCUAUUAUUCUUUCUCGAUCAGUUGUCUUU", "operator-symbol": "=", "observed-result": 8.01}
{"binder": "Id_ii_S2_P4E.3_K4.2_C4.2_[C-2G]_[T-1C]_H4.2_A4.1_F4.1_T4.2_[G10T]_[T11C] (ssRNA) RNA: UUUGAUUAAUAUGAUAUCGUUCUUUCUGCUAUAUAUUAUCUUCUUUCUCGAUAUCAUAUUAAUCUUU", "operator-symbol": "=", "observed-result": 7.65}
{"binder": "UCUCUUUGUAUUAUUUUCCAUCUCUU (ssRNA) [Ie_S1_P5E.1_K5.1_C5.1_H5.1_A5.1_F5.1_[+9TTCC]_T5.1]", "operator-symbol": "=", "observed-result": 7.71}
{"binder": "ACAAACUUUAUAUAUAACACAAAC (ssRNA) [Id_ii_S3_P3E.3_K3.2_C3.2_[C-2T]_H3.2_A3.1_F3.1_T3.2_[T9A]_[A10C]]", "operator-symbol": "=", "observed-result": 6.28}
{"binder": "Ia_S4_P4E.1_K4.1_C4.1_H4.1_A4.1_[T7C]_F4.1_T4.1 (ssRNA) RNA: UUUGACAACUGAUCGUUCUUUCUUGUAUACUAUUCUUUCUCGAUCAGUUGUCUUU", "operator-symbol": "=", "observed-result": 9.29}
{"binder": "Ic_S2_P3E.1_K3.1_C3.1_H3.1_A3.1_[T5A]_F3.1_[T7C]_[A8T]_T3.1 (ssRNA) RNA: UUUGAUUAAUAUGAUAUCGUUCUUUCUUGUAAACUUUCUUUCUCGAUAUCAUAUUAAUCUUU", "operator-symbol": "=", "observed-result": 7.70}
{"binder": "UCUCUUUGUAACCGUAUCUCUU (ssRNA) [Ic_S1_P5E.1_K5.1_C5.1_H5.1_A5.1_[T5A]_[T6C]_[A7C]_F5.1_[T8G]_T5.1]", "operator-symbol": "=", "observed-result": 7.28}
{"binder": "UCUCUUUGUAAUCCUUUCUCUU (ssRNA) [Ic_S1_P5E.1_K5.1_C5.1_H5.1_A5.1_[T5A]_[A7C]_F5.1_[T8C]_[A10T]_T5.1]", "operator-symbol": "=", "observed-result": 6.16}
{"binder": "UCUCUUUGUAAUUGUCUCUU (ssRNA) [Ic_S1_P3E.1_K3.1_C3.1_H3.1_A3.1_[T5A]_[A6T]_F3.1_[A8G]_T3.1]", "operator-symbol": "=", "observed-result": 6.45}
